- Test system: KRas^G12R (Homo sapiens, UniProt P01116, G12R)
- Construct: Biotinylated KRas (corresponding to amino acids 1-169, produced at Accelegan Inc.); biotin (biotinylated); purchased Accelegan Inc
- Sequence (P01116 1-169 isoform P01116-2 G12R): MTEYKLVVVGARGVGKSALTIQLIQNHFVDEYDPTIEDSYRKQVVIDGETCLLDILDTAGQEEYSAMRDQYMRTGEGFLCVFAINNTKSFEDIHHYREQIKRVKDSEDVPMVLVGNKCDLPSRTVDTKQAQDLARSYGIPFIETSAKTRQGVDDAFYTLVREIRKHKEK
- Protocol text: KRas binding assay (TR-FRET tracer displacement), KRas G12R
Assay readout: IC50 (nM)

P: CCc1c(F)ccc2cc(O)cc(-c3ncc4c(N5CC6CNC(CO)C6C5)nc(OC[C@@]56CCCN5C[C@H](F)C6)nc4c3F)c12 (stereo partly drawn)
Q: CCc1c(F)ccc2cc(O)cc(-c3ncc4c(N5CCC[C@@](C)(O)C5)nc(OC[C@@]56CCCN5[C@@H](CNS(=O)(=O)N(C)C)CC6)nc4c3F)c12
Q: Looking only at measured IC50, which entry is lower, P or Q ? Mark your selection by writing its label.
A: Q
(Q: 4 nM, P: 37 nM)

----------
- Test system: KRas^G12V (Homo sapiens, UniProt P01116, G12V)
- Construct: Biotinylated KRas (corresponding to amino acids 1-169, produced at Accelegan Inc.); biotin (biotinylated); purchased Accelegan Inc
- Sequence (P01116 1-169 isoform P01116-2 G12V): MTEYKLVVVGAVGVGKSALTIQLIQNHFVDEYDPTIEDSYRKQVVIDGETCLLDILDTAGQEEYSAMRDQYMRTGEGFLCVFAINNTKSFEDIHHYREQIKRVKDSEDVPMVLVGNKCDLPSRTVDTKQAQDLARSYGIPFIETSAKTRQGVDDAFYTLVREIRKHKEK
- Protocol text: KRas binding assay (TR-FRET tracer displacement), KRas G12V
Assay readout: IC50 (nM)

Previously resolved entries follow.
CCc1c(F)ccc2cc(O)cc(-c3ncc4c(N5CCCC(O)(C(N)=O)C5)nc(OC[C@@]56CCCN5C[C@H](F)C6)nc4c3F)c12 (stereo partly drawn) | 5
CCc1c(F)ccc2cc(O)cc(-c3ncc4c(N5CC6CCC(CCC(=O)NC)(C6)C5)nc(OC[C@@]56CCCN5C[C@H](F)C6)nc4c3F)c12 (stereo partly drawn) | 7
CCc1cccc2cccc(-c3ncc4c(C5CCCOCC5)nc(OCC56CCCN5CCC6)nc4c3F)c12 (racemic) | 42800
CCc1c(F)ccc2cc(O)cc(-c3ncc4c(N5CCCn6nc(C(=O)N(C)C)cc6C5)nc(N5CC(N)C5)nc4c3F)c12 | 21
CCc1cccc2cc3[nH]ncc3c(-c3ncc4c(N5CCCC6(CNS(=O)(=O)N6)C5)nc(OC[C@@]56CCCN5C[C@H](F)C6)nc4c3F)c12 (stereo partly drawn) | 5

P: CCc1c(F)ccc2cc(O)cc(-c3ncc4c(N5CC6CCC(C5)C6(C)O)nc(OC[C@@]56CCCN5C[C@H](F)C6)nc4c3F)c12 (stereo partly drawn)
Q: O=S1(=O)CCC2(CCCN(c3nc(OC[C@@]45CCCN4C[C@H](F)C5)nc4c(F)c(-c5cc(O)cc6ccc(F)c(Cl)c56)ncc34)C2)N1 (stereo partly drawn)
Q: Which has the higher IC50, P or Q ? Mark your selection by writing its label.
A: P

----------
- Tested on: KRas-mediated phosphorylation of ERK in MKN1 cells
- Protocol text: Inhibition of KRas-mediated phosphorylation of ERK (Cisbio HTRF pERK), MKN1 cells
- Format: cell-based
- Recorded conditions: Homo sapiens, MKN-1
Assay readout: IC50 (nM)

CCc1c(F)ccc2cc(O)cc(-c3ncc4c(N5CCCC6(CNS(=O)(=O)N6)C5)nc(OC[C@]56CCCN5[C@H](COC(=O)N(C)C)CC6)nc4c3F)c12 (stereo partly drawn) [Example 716] | 9
C[C@@H]1C[C@@H]1c1c(Cl)cc(O)cc1-c1ncc2c(N3CCCC4(CNS(=O)(=O)N4)C3)nc(OC[C@@]34CCCN3C[C@H](F)C4)nc2c1F (stereo in doubt) [Example 929] | 17

P: CCc1c(F)ccc2cc(O)cc(-c3ncc4c(N5CC6CCC(C5)C6C(=O)NC)nc(OC[C@@]56CCCN5C[C@H](F)C6)nc4c3F)c12 (stereo partly drawn) [Example 850]
Q: CCc1c(F)ccc2cc(O)cc(-c3ncc4c(N5CCC(C)C(F)(F)CC5)nc(OC[C@@]56CCCN5C[C@H](F)C6)nc4c3F)c12 (stereo partly drawn) [Example 581]
R: CCc1c(F)ccc2cc(O)cc(-c3ncc4c(N5CCOC[C@@]6(CCO6)C5)nc(OC[C@@]56CCCN5C[C@H](F)C6)nc4c3F)c12 [Example 836]
S: CCc1c(F)ccc2cc(O)cc(-c3ncc4c(N5CCC(Cn6cccn6)C5)nc(OC[C@@]56CCCN5C[C@H](F)C6)nc4c3F)c12 (stereo partly drawn) [Example 587]
Q: Place the items in sequence of falling IC50. A complete answer lists every label in the requested sequence.
A: S, Q, R, P
